| compound | melting point |
| --- | --- |
| NC(=O)C1N=C(c2ccccc2)c2cc(Cl)ccc2NC1=O (centres undefined) | 255 to 256 °C |
| O=C(O)c1cn(CCc2ccc(O)cc2)c2cc(C3CC3)nn2c1=O | 265 to 270 °C |
| COc1c(C)c2c(c(O)c1C/C=C(\C)C1CCCC1C(=O)O)C(=O)OC2 (centres undefined) | 157 to 158 °C |
| Cc1nn(-c2ccccn2)c2[nH]c3ccc(C(=O)O)cc3c(=O)c12 | > 300 °C |
| CC(=O)Nc1cccc(NC(=O)Cc2ccc(-n3c(-c4cccnc4N)nc4ccc(-c5cccnc5)nc43)cc2)c1 | 142 to 144 °C |
| COc1ccc(NC(=NC#N)NC(NC(=O)Cc2ccc(OC)c(OC)c2)C(C)(C)C)c(OC)n1 (centres undefined) | 162 to 163 °C |
| CCOC(=O)CNc1nc(Cl)ccc1NC(=O)c1ccc(Cl)cc1 | 157 to 158 °C |
| CN(C)CC1CCN(c2nc(N3CCCCC3)c3ncnc(N(C)Cc4cccc5ccccc45)c3n2)CC1 | 150 to 151 °C |
| CN1Cc2cccc(S(N)(=O)=O)c2S1(=O)=O | 195 to 197 °C |
